Target: wt-BTK (Homo sapiens (Human), UniProt Q06187)
Sequence (Q06187 whole entry): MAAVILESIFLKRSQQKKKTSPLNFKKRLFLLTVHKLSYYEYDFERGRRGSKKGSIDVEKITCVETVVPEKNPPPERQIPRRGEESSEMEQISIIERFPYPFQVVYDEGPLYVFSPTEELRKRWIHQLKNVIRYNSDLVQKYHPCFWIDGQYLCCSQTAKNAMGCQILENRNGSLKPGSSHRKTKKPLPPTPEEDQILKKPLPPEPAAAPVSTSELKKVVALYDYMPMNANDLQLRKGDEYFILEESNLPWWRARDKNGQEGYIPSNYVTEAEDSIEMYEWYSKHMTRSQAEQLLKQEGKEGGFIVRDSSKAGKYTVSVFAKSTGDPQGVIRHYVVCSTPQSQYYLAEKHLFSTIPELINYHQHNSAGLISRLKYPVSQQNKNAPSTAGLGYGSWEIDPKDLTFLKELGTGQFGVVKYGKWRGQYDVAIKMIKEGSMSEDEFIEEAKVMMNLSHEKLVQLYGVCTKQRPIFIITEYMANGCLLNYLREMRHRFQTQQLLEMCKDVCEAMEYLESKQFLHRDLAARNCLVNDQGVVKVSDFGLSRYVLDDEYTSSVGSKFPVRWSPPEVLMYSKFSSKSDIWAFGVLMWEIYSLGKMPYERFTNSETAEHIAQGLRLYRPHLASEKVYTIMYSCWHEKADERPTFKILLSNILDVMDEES
Assay: Binding kinetics measurements (Surface Plasmon Resonance) on wt-BTK
Settings: target residence time, SPR
Give Tau (h) wt-BTK (Act) for every item shown.
Hi! Could you send only the number? It should be in h, unit omitted.

Entry Nc1ncc2c3c1c(-c1ccc(C(=O)Nc4cc(C(F)(F)F)ccn4)cc1)nn3[C@@H]1CCC[C@H](C1)C(=O)NCCCCCCC2 , Tau (h) wt-BTK (Act) reported as 5.09

Entry COc1ccc(F)cc1C(=O)NCc1ccc(-c2nn3c4c(cnc(N)c24)/C=C/CCCCC(=O)N[C@@H]2CCC[C@@H]3C2)cc1 , Tau (h) wt-BTK (Act) reported as 1.82

Entry Nc1ncc2c3c1c(-c1ccc(C(=O)Nc4cc(C(F)(F)F)ccn4)cc1)nn3[C@@H]1CC[C@H](C1)NC(=O)[C@@H]1CCN1CC/C=C/2 , Tau (h) wt-BTK (Act) reported as 1.35

Entry COc1ccc(F)cc1C(=O)NCc1ccc(-c2nn3c4c(cnc(N)c24)/C=C/CCCCCC(=O)N[C@@H]2CCC[C@@H]3C2)cc1 , Tau (h) wt-BTK (Act) reported as 18.83

Entry C[C@@H]1CCn2nc(-c3ccc(C(=O)Nc4cc(C(F)(F)F)ccn4)cc3)c3c(N)ncc(c32)/C=C/CCOCC(=O)N1 , Tau (h) wt-BTK (Act) reported as 1.10

Entry Nc1ncc2c3c1c(-c1ccc(C(=O)Nc4cc(C(F)(F)F)ccn4)cc1)nn3[C@@H]1CCCN(C1)C(=O)CCCCCC/C=C/2 , Tau (h) wt-BTK (Act) reported as 8.24

Taken from patent US20250074911A1.
